# credit: the supplement of paper PMC9233669

System: biotinyl-Ile-oxazolone
Assay: self-aminoacylation, catalytic enhancement (BIO) (fold over background); higher = more active; k-Seq, kA / k0A0; sequences stand for … in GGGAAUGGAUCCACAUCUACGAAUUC…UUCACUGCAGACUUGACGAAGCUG
Fewer inactive variants are shown than the library holds.

# Biopolymer Sequence, self-aminoacylation
measured = [
    ("AAGUUUGCCACUAGUCGCAAG [Fam3.1 aminoacylation ribozyme variant]", 0.918),
    ("AUUACCGUGGUCAUCGAGUGC [Fam2.1 aminoacylation ribozyme variant]", 0.895),
    ("AUUCACCAAGUUCAUCGGGUG [Fam2.2 aminoacylation ribozyme variant]", 3.06),
    ("CUACUUUUAACAAUCGGUCUG [Fam1A.1 aminoacylation ribozyme variant]", 0.888),
]
